# EXPERIMENTAL PROTOCOL: Half life period by po administration in dog at a dose of 0.3 mg/kg
# Format: ADME, organism-based, Canis lupus familiaris
# Design: dose 0.3 mg/kg, route oral
# EXPERIMENTAL CONTEXT: in vivo
half-life: recorded values
QUANTITY: half-life (min)

1) Cc1c[nH]c(=O)n(CCCN2CCN(c3ccc(F)cc3OCC(F)(F)F)CC2)c1=O :: 168
2) C[C@]1(O)C(=O)N(CCCN2CCN(c3ccc(F)cc3OCC(F)(F)F)CC2)C(=O)N[C@H]1O :: 600

====

# EXPERIMENTAL PROTOCOL: Volume of distribution by as 4 fold increase by iv administration in dogs
# Type: ADME, organism-based, Canis lupus familiaris
# EXPERIMENTAL CONTEXT: dog, in vivo
Reported values of Vd for individual entries
QUANTITY: Vd (L/kg)

1) Cc1c[nH]c(=O)n(CCCN2CCN(c3ccc(F)cc3OCC(F)(F)F)CC2)c1=O :: 0.93
2) C[C@]1(O)C(=O)N(CCCN2CCN(c3ccc(F)cc3OCC(F)(F)F)CC2)C(=O)N[C@H]1O :: 4
